Cited source: patent US6784167B2

Catalogue of melting point readings, one per entry.

Here are 3 compounds together with their reported answers.
CC(=O)Nc1cccc(-c2ccc([C@@H](O)[C@H]3[C@@H](c4ccccc4)CC(=O)N3C)o2)c1 (racemic) [Example 121]
193 °C
CN1C(=O)C[C@@H]2c3ccccc3[C@@](O)(c3ccc(-c4ccccc4)s3)[C@@H]21 (relative stereo) [Example 24]
178 to 180 °C
CN1C(=O)CC(c2ccccc2)C1C(O)c1ccc(S(=O)(=O)N2CCN(c3ccc(F)cc3)CC2)s1 (racemic) [Example 37]
167 to 175 °C

Q) What does the record list as melting point for CN1C(=O)C[C@H](c2ccccc2)[C@@H]1[C@H](O)C#CCN1CCS(=O)(=O)CC1 (racemic) [Example 130] ?
A) 217 to 218 °C

Q) Return reported melting point; argument: CN1C(=O)CC(c2ccccc2)C1C(O)c1ccc(-c2cccc3ccccc23)s1 (stereo not shown) [Example 45]
A) 160 °C

Q) Which melting point is reported for this compound? CN1C(=O)C[C@H](c2ccccc2)[C@@H]1[C@H](O)C#Cc1ccc(-c2ccccc2)cc1 (racemic) [Example 136]
A) 217 to 218 °C

Q) # query: melting point of entry CN1C(=O)CC(c2ccccc2)C1C(O)C#Cc1cccc(O)c1 (stereo not shown) [Example 132]
A) 210 to 211 °C
